Reference source: paper PMC9995496

- Test system: PRKACA-PRKAR2A interaction (SmBiT-PRKACA / LgBiT-PRKAR2A), protein kinase A
- Design: NanoLuc complementation counter-screen in cell extract, PRKACA with PRKAR2A, loss of luminescence, detects NanoLuc interference
- settings: counter-screen for NanoLuc interference; 0.5 h, 20 µM; inhibitor
Structures can show the parent of a compound that is named as a salt. Peptide text beside a SMILES is read from it. * marks the point of attachment. Cbz = O=C(OCc1ccccc1)*; CH2F = FC*
property.name: Inh (PKA) (%)
Value expressed in %; do not type the unit.

Would you please look over these solved cases?
CN(c1ccccc1CNc1nc(Nc2ccc3c(c2)CC(=O)N3)ncc1C(F)(F)F)S(C)(=O)=O [UM0142118:01, PF-431396]; 63.93
COc1cccc(CCc2ccccc2OCC(CN(C)C)OC(=O)CCC(=O)O)c1 (stereo not shown) [UM0142521:01, Sarpogrelate hydrochloride]; 4.065
Cc1ncc(-c2ccnc(Nc3ccc(S(C)(=O)=O)cc3)n2)n1C(C)C [UM0141991:01, AZD-5438]; 13.33

*Q* Suppose we examine the compound CN1CCC(Nc2nc(Nc3ccc(Oc4ccccc4)cc3)c3c(=O)[nH]cc(Br)c3n2)CC1 [UM0142146:01, G-749] ; what Inh (PKA) value has been reported?
*A* 37.05

*Q* Suppose we examine the compound CC(C)Nc1cc(-c2c[nH]c(C(=O)N[C@H](CO)c3cccc(Cl)c3)c2)c(Cl)cn1 [UM0142171:01, VRT752271] ; what Inh (PKA) value has been reported?
*A* 17.24

*Q* Suppose we examine the compound CN1CCN(c2cccc(Nc3nc4c(-c5ccc(S(C)(=O)=O)cc5)cccn4n3)c2)CC1 [UM0141732:01, CEP-33779] ; what Inh (PKA) value has been reported?
*A* 32.81

*Q* Suppose we examine the compound COC(=O)CC(NC(=O)OC(C)(C)C)C(=O)CF [UM0141423:01, Boc-D-FMK] ; what Inh (PKA) value has been reported?
*A* 1.796

*Q* Suppose we examine the compound COC(=O)C[C@H](NC(=O)[C@H](C)NC(=O)[C@@H](NC(=O)[C@H](CC(=O)OC)NC(=O)[C@@H](NC(=O)OCc1ccccc1)C(C)C)C(C)C)C(=O)CF [UM0141429:01, Z-VDVAD-FMK] (Cbz-VD(OMe)VAD(OMe)-CH2F) ; what Inh (PKA) value has been reported?
*A* -0.4508

*Q* Suppose we examine the compound CCC(=O)NCC[C@@H]1CCc2ccc3c(c21)CCO3 [UM0121254:03, Ramelteon] ; what Inh (PKA) value has been reported?
*A* 6.005

*Q* Suppose we examine the compound Cc1ccc(NCCCc2ccccc2)c(N)c1 [UM0142338:01, JSH-23] ; what Inh (PKA) value has been reported?
*A* 14.43

*Q* Suppose we examine the compound OCCOCCN1CCN(C2=Nc3ccccc3Sc3ccccc32)CC1 [UM0142275:01, Quetiapine Fumarate] ; what Inh (PKA) value has been reported?
*A* 6.997

*Q* Suppose we examine the compound CCCNC(=O)[C@H]1O[C@@H]1C(=O)N[C@H](C(=O)N1CCC[C@H]1C(=O)OC)[C@@H](C)CC [UM0141967:01, CA-074 Me] ; what Inh (PKA) value has been reported?
*A* -0.4464

*Q* Suppose we examine the compound C=C[C@@H]1C[C@]1(NC(=O)[C@@H]1C[C@@H]2CN1C(=O)[C@H](C(C)(C)C)NC(=O)O[C@@H]1C[C@H]1CCCCCc1nc3ccc(OC)cc3nc1O2)C(=O)NS(=O)(=O)C1CC1 [UM0141587:01, MK-5172] ; what Inh (PKA) value has been reported?
*A* 6.735

*Q* Suppose we examine the compound CCC(=O)N1CCN(c2ccc(-n3c(=O)ccc4cnc5ccc(-c6cnc7ccccc7c6)cc5c43)cc2C(F)(F)F)CC1 [UM0141981:01, Torin 1] ; what Inh (PKA) value has been reported?
*A* 8.063

*Q* Suppose we examine the compound OC[C@@H](O)[C@@H](O)[C@@H](O)CO [UM0050273:04, Ribitol] ; what Inh (PKA) value has been reported?
*A* 0.444

*Q* Suppose we examine the compound O=C(O)c1ccccc1O [UM0038620:02, Salicylic acid] ; what Inh (PKA) value has been reported?
*A* 0.4961

* * *

Catalogue of compounds with associated Inh (PKA)
- System: PRKACA-PRKAR2A interaction (SmBiT-PRKACA / LgBiT-PRKAR2A), protein kinase A
- Parameters: NanoLuc complementation counter-screen in cell extract, PRKACA with PRKAR2A, loss of luminescence, detects NanoLuc interference
- settings: counter-screen for NanoLuc interference; 0.5 h, 20 µM; inhibitor
Value expressed in %; do not type the unit.

Would you please look over these solved cases?
CNCc1cc(-c2ccccc2F)n(S(=O)(=O)c2cccnc2)c1; 1.837
CC(C)[C@H](O)C(=O)N[C@@H](C)C(=O)N[C@@H]1C(=O)N(C)CCc2ccccc21; -0.02723

*Q* Can you look up Inh (PKA) on PRKACA-PRKAR2A interaction (SmBiT-PRKACA / LgBiT-PRKAR2A), protein kinase A for `O=C(Nc1cnn2ccc(N3CCC[C@@H]3c3cc(F)ccc3F)nc12)N1CC[C@H](O)C1` ?
*A* 0.6062

*Q* Can you look up Inh (PKA) on PRKACA-PRKAR2A interaction (SmBiT-PRKACA / LgBiT-PRKAR2A), protein kinase A for `Nc1ncnc2n[nH]c(Nc3ccc(F)cc3)c12` ?
*A* 5.777

*Q* Can you look up Inh (PKA) on PRKACA-PRKAR2A interaction (SmBiT-PRKACA / LgBiT-PRKAR2A), protein kinase A for `COc1ccc(CNc2nc(N3CCC[C@H]3CO)ncc2C(=O)NCc2ncccn2)cc1Cl` ?
*A* 18.48

*Q* Can you look up Inh (PKA) on PRKACA-PRKAR2A interaction (SmBiT-PRKACA / LgBiT-PRKAR2A), protein kinase A for `N#C[C@@H]1C[C@@H]2C[C@@H]2N1C(=O)[C@@H](N)C12CC3CC(CC(O)(C3)C1)C2` ?
*A* 1.3

*Q* Can you look up Inh (PKA) on PRKACA-PRKAR2A interaction (SmBiT-PRKACA / LgBiT-PRKAR2A), protein kinase A for `CNS(=O)(=O)CCc1ccc2[nH]cc(C3CCN(C)CC3)c2c1` ?
*A* -0.5355

*Q* Can you look up Inh (PKA) on PRKACA-PRKAR2A interaction (SmBiT-PRKACA / LgBiT-PRKAR2A), protein kinase A for `COc1c(C)cnc(Cn2cnc3c(Cl)nc(N)nc32)c1C` ?
*A* 2.432

*Q* Can you look up Inh (PKA) on PRKACA-PRKAR2A interaction (SmBiT-PRKACA / LgBiT-PRKAR2A), protein kinase A for Nc1ncnc2c1ncn2C1CCCO1 (centres unmarked) ?
*A* -2.134

*Q* Can you look up Inh (PKA) on PRKACA-PRKAR2A interaction (SmBiT-PRKACA / LgBiT-PRKAR2A), protein kinase A for `COc1cccc2c1c(O)c(C(=O)N(C)c1ccc(C(F)(F)F)cc1)c(=O)n2C` ?
*A* 2.103

*Q* Can you look up Inh (PKA) on PRKACA-PRKAR2A interaction (SmBiT-PRKACA / LgBiT-PRKAR2A), protein kinase A for O=C(NC(Cc1cc(=O)[nH]c2ccccc12)C(=O)O)c1ccc(Cl)cc1 (centres unmarked) [UM0142401:01, Rebamipide] ?
*A* 2.079

* * *

Catalogue of compounds with associated Inhibition percent
- system.under.test: MeCP2-TBL1 interaction (MeCP2-SmBiT / TBL1-LgBiT) (Mus musculus)
- Construct: expressed in transfected cells; crude lysate used as a cell-free assay
- Sequence (Q9QXE7 166-527): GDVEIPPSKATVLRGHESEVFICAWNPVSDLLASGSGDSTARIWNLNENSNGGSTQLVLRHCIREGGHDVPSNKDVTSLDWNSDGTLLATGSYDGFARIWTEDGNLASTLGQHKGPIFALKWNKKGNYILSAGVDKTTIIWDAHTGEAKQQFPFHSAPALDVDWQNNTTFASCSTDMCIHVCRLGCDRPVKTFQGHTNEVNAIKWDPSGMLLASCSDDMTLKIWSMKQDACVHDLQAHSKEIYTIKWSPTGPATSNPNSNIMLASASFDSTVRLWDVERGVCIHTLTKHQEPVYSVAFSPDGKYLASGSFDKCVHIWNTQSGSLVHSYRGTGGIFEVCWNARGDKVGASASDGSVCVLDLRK
- test.summary: MeCP2-TBL1 NanoLuc luciferase complementation assay (cell-free, extracts of transfected HEK293 cells);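 further: each compound tested at 20 µM final concentration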
- Format: binding, human
- settings: primary screen of the Asinex library, sheet "Sargen output Asinex library", one well per compound
Value expressed in %; do not type the unit.

CC(C)C[C@H]1CN(C(=O)c2ccc(O)cc2)CC[C@H]1Nc1cccc(Cl)c1; 7.44

*Q* Can you look up Inhibition percent on MeCP2-TBL1 interaction (MeCP2-SmBiT / TBL1-LgBiT) (Mus musculus) for Cc1ccccc1OCCC(=O)N1CCC(c2nc(N(C)C)ncc2-c2cccc(F)c2)C1 (centres unmarked) ?
*A* 9.04

*Q* Can you look up Inhibition percent on MeCP2-TBL1 interaction (MeCP2-SmBiT / TBL1-LgBiT) (Mus musculus) for COc1ccc(C2(C(=O)N3CCC4(CC3)CC(Oc3ccccc3F)CO4)CCOCC2)cc1 (centres unmarked) ?
*A* -1.24

*Q* Can you look up Inhibition percent on MeCP2-TBL1 interaction (MeCP2-SmBiT / TBL1-LgBiT) (Mus musculus) for `CC(=O)N1CCc2nc(C3CCN(C)CC3)nc(NCCCN(C)c3ccccc3)c2C1` ?
*A* -2.49

*Q* Can you look up Inhibition percent on MeCP2-TBL1 interaction (MeCP2-SmBiT / TBL1-LgBiT) (Mus musculus) for Cn1c(=O)c2ccc(C3CCCCN3C(=O)c3cc[nH]n3)nc2n(Cc2ccccc2)c1=O (centres unmarked) ?
*A* 4.40

*Q* Can you look up Inhibition percent on MeCP2-TBL1 interaction (MeCP2-SmBiT / TBL1-LgBiT) (Mus musculus) for `O=C1CCCC[C@]2(CN(Cc3ccnc(N4CCOCC4)n3)C[C@H]2c2cccc(F)c2)N1` ?
*A* -4.25

*Q* Can you look up Inhibition percent on MeCP2-TBL1 interaction (MeCP2-SmBiT / TBL1-LgBiT) (Mus musculus) for `CC(=O)N1CCC(C(=O)N[C@@H]2C[C@@H](Oc3cccc(F)c3)[C@H](O)[C@H]2N(C)Cc2ccccc2)CC1` ?
*A* 0.18

*Q* Can you look up Inhibition percent on MeCP2-TBL1 interaction (MeCP2-SmBiT / TBL1-LgBiT) (Mus musculus) for `CC(=O)N[C@@H]1C[C@@H](C(=O)N(C)C)N(CC(=O)Nc2ccc3[nH]c(=O)[nH]c3c2)[C@H]1c1ccccc1` ?
*A* -1.45

*Q* Can you look up Inhibition percent on MeCP2-TBL1 interaction (MeCP2-SmBiT / TBL1-LgBiT) (Mus musculus) for `O=C1COc2ccccc2CCCC[C@@H]2CN(C(=O)CCCn3cccn3)CC[C@H]2N1` ?
*A* 0.76

*Q* Can you look up Inhibition percent on MeCP2-TBL1 interaction (MeCP2-SmBiT / TBL1-LgBiT) (Mus musculus) for O=C(c1ccccc1OCCN1CCOCC1)N1CCCC(Cc2ccc3ncccc3c2)C1 (centres unmarked) ?
*A* -2.19

*Q* Can you look up Inhibition percent on MeCP2-TBL1 interaction (MeCP2-SmBiT / TBL1-LgBiT) (Mus musculus) for COc1ccccc1Cc1ccc(C(=O)N2CCCC2c2cncc(-c3nc(C)c[nH]3)n2)cn1 (centres unmarked) ?
*A* -4.74
